// note: IC50 values for Protein arginine N-methyltransferase 5 (Homo sapiens) were reported in different studies
REPORTED ENDPOINT: IC50 (nM)

Sample records with IC50:
# TEST SMILES, REPORTED ENDPOINT, READOUT UNITS, READING
data = [
    ("Nc1ncnc2c1c(Br)cn2[C@@H]1C[C@H](Oc2cc(Cl)cc3c2CNCC3)[C@@H](O)[C@H]1O", "IC50", "nM", 1),
    ("COc1ccc(-c2ccc(/C=N/NC(N)=O)o2)cc1", "IC50", "nM", 2100),
    ("Cc1cc2c(c(O[C@H]3C[C@@H](n4ccc5c(C)ncnc54)[C@H](O)[C@@H]3O)c1)CNCCO2", "IC50", "nM", 2),
    ("Cc1ncnc2c1ccn2[C@@H]1O[C@H]([C@H](O)c2cccc3cc[nH]c23)[C@@H](O)[C@H]1O", "IC50", "nM", 150),
    ("NC(=O)N/N=C/c1ccc(-c2ccc(Cl)cc2N)o1", "IC50", "nM", 13000),
]

a: NC(=O)N/N=C/c1cncc(-c2ccc(Cl)cc2)c1
b: Cc1ncnc2c1ccn2[C@@H]1C[C@H](Oc2cc(C(F)F)cc3c2CNCCO3)[C@@H](O)[C@H]1O
input: Which of the two items, a and b , has the greater recorded IC50? Provide the label of your selected option as the answer.
output: a
